Where do the numbers come from? From paper PMC9861757.

# testedSystem: human CA II (Homo sapiens, UniProt P00918)
# test: stopped-flow CO2 hydrase assay, CA II inhibition
readoutType: pKi
Recall that pKi is obtained by taking minus log10 of the concentration measured in molar.

What value of pKi has been recorded for this entry: CCN1CCN(C(=O)Nc2cc(S(N)(=O)=O)ccc2O)CC1
5.11

Given NS(=O)(=O)c1ccc(CCNC(=O)Nc2ccccc2O)cc1 , state its recorded pKi.
7.12

What does the data say about its pKi? Entry: NS(=O)(=O)c1ccc(O)c(NC(=O)NCCN2CCCCC2)c1
6.54

Which pKi is listed for NS(=O)(=O)c1ccc(O)c(NC(=O)N2CCCCC2)c1 ?
6.04

State the recorded pKi for this entry: NS(=O)(=O)c1ccc(O)c(NC(=O)N2CCCC2)c1
5.50

// returns reported pKi for input NS(=O)(=O)c1ccc(O)c(NC(=O)N2CCN(CC(=O)NC3CCCCC3)CC2)c1
6.39

Looking for the measured pKi of NS(=O)(=O)c1ccc(O)c(NC(=O)NCCN2CCOCC2)c1 , can you help?
5.52

Could you tell me which pKi is on file for NS(=O)(=O)c1ccc(O)c(NC(=O)N2CCOCC2)c1 ?
5.10

----------
Answer each item with its documented pKi.
# testedSystem: human CA IX (Homo sapiens, UniProt Q16790)
# test: stopped-flow CO2 hydrase assay, CA IX inhibition
Just the number, please; pKi means minus log10 of the concentration in mol/L.

Recorded pKi of NS(=O)(=O)c1ccc(O)c(NC(=O)N2CCCC2)c1 [Compound 3a] , please.
6.43

Which pKi reading was recorded for the compound NS(=O)(=O)c1ccc(O)c(NC(=O)N2CCOCC2)c1 [Compound 3c] ?
6.85

Give the measured pKi of NS(=O)(=O)c1ccc(O)c(NC(=O)NCCN2CCOCC2)c1 [Compound 3e] .
5.67

GET /values?readout=pKi&item= NS(=O)(=O)c1ccc(O)c(NC(=O)NCCN2CCCCC2)c1 [Compound 3d]
5.39

Recorded pKi of NS(=O)(=O)c1ccc(CCNC(=O)Nc2ccccc2O)cc1 [Compound 3k] , please.
7.46

Bench note: what pKi did NS(=O)(=O)c1ccc(O)c(NC(=O)N2CCCCC2)c1 [Compound 3b] show?
6.51

For the compound NS(=O)(=O)c1ccc(O)c(NC(=O)N2CCN(CC(=O)NC3CCCCC3)CC2)c1 [Compound 3i] , what pKi is on record?
6.69

Return reported pKi; argument: CCN1CCN(C(=O)Nc2cc(S(N)(=O)=O)ccc2O)CC1 [Compound 3f]
5.67

----------
# testedSystem: human CA XII (Homo sapiens)
# Sequence (O43570 25-354): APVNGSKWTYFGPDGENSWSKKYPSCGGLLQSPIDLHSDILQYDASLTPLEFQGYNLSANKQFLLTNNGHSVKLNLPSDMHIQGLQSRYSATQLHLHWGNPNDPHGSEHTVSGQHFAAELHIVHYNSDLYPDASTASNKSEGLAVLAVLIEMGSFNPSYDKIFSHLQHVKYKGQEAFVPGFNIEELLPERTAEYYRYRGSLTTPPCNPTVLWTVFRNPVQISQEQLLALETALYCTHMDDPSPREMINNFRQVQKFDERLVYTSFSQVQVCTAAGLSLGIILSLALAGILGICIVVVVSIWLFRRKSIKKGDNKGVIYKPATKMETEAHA
# test: stopped-flow CO2 hydrase assay, CA XII inhibition
Consider the following compounds; for each one, report its log10 of Ki.
Remember, log10 of Ki, in nM.

Given CCN1CCN(C(=O)Nc2cc(S(N)(=O)=O)ccc2O)CC1 , state its recorded log10 of Ki.
2.70

Record request: log10 of Ki value, item NS(=O)(=O)c1ccc(O)c(NC(=O)N2CCOCC2)c1
1.87

What value of log10 of Ki has been reported for the following compound? NS(=O)(=O)c1ccc(O)c(NC(=O)N2CCCCC2)c1
2.71

Return reported log10 of Ki; argument: NS(=O)(=O)c1ccc(CCNC(=O)Nc2ccccc2O)cc1
2.38

log10 of Ki for NS(=O)(=O)c1ccc(O)c(NC(=O)N2CCCC2)c1 ?
1.96

Could you tell me which log10 of Ki is on file for NS(=O)(=O)c1ccc(O)c(NC(=O)NCCN2CCCCC2)c1 ?
2.82

Fill in the blank: the reported log10 of Ki of NS(=O)(=O)c1ccc(O)c(NC(=O)NCCN2CCOCC2)c1 is ____.
2.80

If you can, please state the reported log10 of Ki value of NS(=O)(=O)c1ccc(O)c(NC(=O)N2CCN(CC(=O)NC3CCCCC3)CC2)c1 .
1.53

----------
# testedSystem: human CA IX (Homo sapiens, UniProt Q16790)
# test: stopped-flow CO2 hydrase assay, CA IX inhibition
# statedConditions: ratio KI CA IX / KI CA II
Please use t whenever SI (IX/II) is not below 0.5, and f whenever it is.

Would you say CCN1CCN(C(=O)Nc2cc(S(N)(=O)=O)ccc2O)CC1 [Compound 3f] shows SI (IX/II) at minimum 0.5?
f

Given NS(=O)(=O)c1ccc(O)c(NC(=O)NCCN2CCCCC2)c1 [Compound 3d] , state whether its SI (IX/II) is at least 0.5.
t

Does NS(=O)(=O)c1ccc(CCNC(=O)Nc2ccccc2O)cc1 [Compound 3k] have a reported SI (IX/II) of at least 0.5?
t

Entry NS(=O)(=O)c1ccc(O)c(NC(=O)NCc2ccncc2)c1 [Compound 3g] : is its SI (IX/II) no less than 0.5?
f

Is SI (IX/II) for NS(=O)(=O)c1ccc(O)c(NC(=O)NCCCCO)c1 [Compound 3j] at or above 0.5?
f

Please tell me: is the compound NS(=O)(=O)c1ccc(O)c(NC(=O)NCCN2CCOCC2)c1 [Compound 3e] at or over 0.5 in terms of SI (IX/II)?
t

Quick check: does NS(=O)(=O)c1ccc(O)c(NC(=O)N2CCCC2)c1 [Compound 3a] have SI (IX/II) greater than or equal to 0.5?
f

Can NS(=O)(=O)c1ccc(O)c(NC(=O)N2CCCCC2)c1 [Compound 3b] be said to have SI (IX/II) at or above 0.5?
f

Please indicate if the recorded SI (IX/II) for NS(=O)(=O)c1ccc(O)c(NC(=O)N2CCOCC2)c1 [Compound 3c] meets or exceeds 0.5.
f

Textbook exercise: given the entry NS(=O)(=O)c1ccc(O)c(NC(=O)NCCc2ccccn2)c1 [Compound 3h] , state whether its SI (IX/II) is greater than or equal to 0.5.
f
